# systemName: T1, E. coli β clamp (β subunit of DNA polymerase III, dnaN gene product) (E. coli, UniProt P0A988 1-366)
# T1 construct: Expressed in BL21 E. coli from pET15b with an N-terminal tag; also called β ring; β protein; not shown: N-terminal tag from plasmid pET15b ('N-tagged protein', purified on Ni-NTA)
# T1 sequence (P0A988 whole entry): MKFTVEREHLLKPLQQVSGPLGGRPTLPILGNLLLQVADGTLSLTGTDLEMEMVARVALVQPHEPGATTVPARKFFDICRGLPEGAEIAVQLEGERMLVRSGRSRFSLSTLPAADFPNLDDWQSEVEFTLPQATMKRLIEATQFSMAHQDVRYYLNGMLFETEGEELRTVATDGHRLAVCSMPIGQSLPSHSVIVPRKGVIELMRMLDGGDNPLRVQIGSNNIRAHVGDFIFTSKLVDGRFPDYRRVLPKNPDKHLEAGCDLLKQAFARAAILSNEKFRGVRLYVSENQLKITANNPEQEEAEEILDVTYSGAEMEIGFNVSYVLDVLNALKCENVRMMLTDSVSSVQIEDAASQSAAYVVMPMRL
# procedureText: ITC, peptide 400 µM into β ring 20 µM, 25 °C
Square brackets hold non-standard residues; d marks the D form. Phe(3,4-Cl2) = N[C@@H](Cc1ccc(Cl)c(Cl)c1)C(=O)O; Phe(4-Br) = N[C@@H](Cc1ccc(Br)cc1)C(=O)O; Phe(4-Cl) = N[C@@H](Cc1ccc(Cl)cc1)C(=O)O; Phe(4-Me) = Cc1ccc(C[C@H](N)C(=O)O)cc1; Cha = N[C@@H](CC1CCCCC1)C(=O)O
# pKd values compiled below
Units for pKd: none; it is -log10 of a concentration expressed in mol/L.

| binder | pKd |
| --- | --- |
| Ac-Q[Cha]DL[Phe(4-Me)]-OH (SMILES CC(=O)N[C@@H](CCC(N)=O)C(=O)N[C@@H](CC1CCCCC1)C(=O)N[C@@H](CC(=O)O)C(=O)N[C@@H](CC(C)C)C(=O)N[C@@H](Cc1ccc(C)cc1)C(=O)O, also called AcQChaDLpMeF; Ac-Q Cha DL pMeF) [P11 (Ac-Gln-Cha-Asp-Leu-pMePhe-OH)] | 6.40 |

Problem: Query: pKd; subject: Ac-Q[Cha]DL[Phe(4-Cl)]-OH (SMILES CC(=O)N[C@@H](CCC(N)=O)C(=O)N[C@@H](CC1CCCCC1)C(=O)N[C@@H](CC(=O)O)C(=O)N[C@@H](CC(C)C)C(=O)N[C@@H](Cc1ccc(Cl)cc1)C(=O)O, also called AcQChaDLpClF; Ac-Q Cha DL pClF) [P12 (Ac-Gln-Cha-Asp-Leu-pClPhe-OH)]
Result: 7.05

Problem: Entry Ac-Q[Cha]DL[Phe(3,4-Cl2)]-OH (SMILES CC(=O)N[C@@H](CCC(N)=O)C(=O)N[C@@H](CC1CCCCC1)C(=O)N[C@@H](CC(=O)O)C(=O)N[C@@H](CC(C)C)C(=O)N[C@@H](Cc1ccc(Cl)c(Cl)c1)C(=O)O, also called AcQChaDLdiClF; Ac Q Cha D L diClF) [P14 (Ac-Gln-Cha-Asp-Leu-(3,4-di-Cl)Phe-OH)] : reported pKd = ?
Result: 7.14

Problem: I'd like to know its pKd. The binder in question is Ac-Q[Cha]DL[Phe(4-Br)]-OH (SMILES CC(=O)N[C@@H](CCC(N)=O)C(=O)N[C@@H](CC1CCCCC1)C(=O)N[C@@H](CC(=O)O)C(=O)N[C@@H](CC(C)C)C(=O)N[C@@H](Cc1ccc(Br)cc1)C(=O)O, also called AcQChaDLpBrF; Ac-Q Cha DL pBrF) [P13 (Ac-Gln-Cha-Asp-Leu-pBrPhe-OH)]
Result: 6.87
